Answer each item with its documented inhibition.
System: Lethal factor (Bacillus anthracis) (UniProt P15917)
Sequence (P15917 whole entry, looked up): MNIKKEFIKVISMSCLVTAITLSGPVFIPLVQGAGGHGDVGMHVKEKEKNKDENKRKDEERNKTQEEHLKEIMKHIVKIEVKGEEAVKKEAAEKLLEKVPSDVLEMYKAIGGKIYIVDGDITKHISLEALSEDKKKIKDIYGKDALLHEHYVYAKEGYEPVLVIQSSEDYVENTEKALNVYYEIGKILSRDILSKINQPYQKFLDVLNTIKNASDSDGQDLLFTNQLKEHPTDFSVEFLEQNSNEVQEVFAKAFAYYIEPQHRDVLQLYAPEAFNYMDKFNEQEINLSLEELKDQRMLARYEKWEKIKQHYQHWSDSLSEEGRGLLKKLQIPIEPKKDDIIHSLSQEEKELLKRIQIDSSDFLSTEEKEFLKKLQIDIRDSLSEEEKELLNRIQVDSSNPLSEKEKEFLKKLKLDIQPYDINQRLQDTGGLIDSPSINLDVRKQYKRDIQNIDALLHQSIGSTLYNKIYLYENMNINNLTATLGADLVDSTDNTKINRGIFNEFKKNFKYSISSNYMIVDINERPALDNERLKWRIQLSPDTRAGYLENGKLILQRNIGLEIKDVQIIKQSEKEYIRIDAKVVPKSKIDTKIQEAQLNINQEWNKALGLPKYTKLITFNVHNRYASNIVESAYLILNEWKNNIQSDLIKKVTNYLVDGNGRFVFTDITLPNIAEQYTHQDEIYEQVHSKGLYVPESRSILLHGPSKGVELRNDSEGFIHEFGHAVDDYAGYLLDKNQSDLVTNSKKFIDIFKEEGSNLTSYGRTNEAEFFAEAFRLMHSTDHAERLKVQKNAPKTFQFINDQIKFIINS
Assay explanation: anthrax lethal factor cleavage blockers – biochemical, multiplex microsphere, MLPCN library, primary screen (AID 588501); note: plate controls were buffer without enzyme for full effect and enzyme alone for no effect
Details: multiplex microsphere protease cleavage assay, LF; at 10 µM; hits give high values
In all, about 360,000 compounds went through this assay and about 420 (0.12%) were called active. This excerpt belongs to a sample that is enriched for actives.

Answered examples (3):
[[record]]
compound = "CCC(CC)C(=O)Nc1cc(C(=O)OC)cc(C(=O)OC)c1"
system = "Lethal factor (Bacillus anthracis) (UniProt P15917)"
value_measured = "-1.3% (inactive)"

[[record]]
compound = "NS(=O)(=O)c1ccc(-c2ccc(/C=C3\\SC(=O)NC3=O)o2)cc1"
system = "Lethal factor (Bacillus anthracis) (UniProt P15917)"
value_measured = "-4.1% (inactive)"

[[record]]
compound = "CN1C(=O)/C(=C\\c2ccc(-c3ccccc3)o2)SC1=S"
system = "Lethal factor (Bacillus anthracis) (UniProt P15917)"
value_measured = "30.1% (active)"


List reported inhibition for each of these compounds:
1. COC(=O)CNS(=O)(=O)c1ccc(Cc2ccc(S(=O)(=O)NCC(=O)OC)cc2)cc1
2. CCN(CC)C(=O)C1=C(C)N(Cc2ccc(OC)cc2)C(=O)C(CC(=O)NCCCCc2ccccc2)C1 (stereo not given)

stdout:
1: -2.1% (inactive); 2: -3.9% (inactive)

For the 5 compounds below, give their inhibition values.
1. O=C(NCc1ccncc1)C(=O)NCC1OCCN1S(=O)(=O)c1ccc(Br)cc1 (stereo not given)
2. COc1cc(Cl)ccc1OCc1cc(C(=O)N2CC[C@@H]3CCCC[C@H]3C2)no1
3. Fc1ccccc1OCCCCn1cncn1
4. COc1ccc(CC(=O)NC(C)c2ccc(Cl)c(Cl)c2)cc1S(=O)(=O)N1CCOCC1 (stereo not given)
5. COc1ccc(NC(=S)N2CCc3cc(OC)c(OC)cc3C2)cc1

stdout:
["-6.7% (inactive)", "0.9% (inactive)", "7.4% (inactive)", "1.2% (inactive)", "-2.2% (inactive)"]

###

Could you please report measured inhibition for the items listed next?
System: Lethal factor (Bacillus anthracis)
Assay explanation: anthrax lethal factor cleavage blockers – biochemical, multiplex microsphere, MLPCN library, primary screen (AID 588501); note: plate controls were buffer without enzyme for full effect and enzyme alone for no effect
Details: multiplex microsphere protease cleavage assay, LF; at 10 µM; hits give high values
The whole screen tested about 360,000 compounds, of which about 420 (0.12%) were called active. Shown is part of a subset that was picked to be rich in actives.
Numbers only, in %.

[[record]]
compound = "CCn1c(CSc2nncn2-c2ccc(OC)cc2)nc2cc(S(=O)(=O)N(C)C)ccc21"
observable = "inhibition"
value_measured = -15

[[record]]
compound = "O=C(N/C(=C\\c1ccc([N+](=O)[O-])cc1)C(=O)N1CCCCC1)c1ccco1"
observable = "inhibition"
value_measured = 14.4

[[record]]
compound = "CNC(=O)c1nnn(-c2ccccc2)c1C(=O)NC"
observable = "inhibition"
value_measured = -0.6

[[record]]
compound = "OCC1(Cc2ccccc2C(F)(F)F)CCN(Cc2cccc3cnccc23)CC1"
observable = "inhibition"
value_measured = -3.3

[[record]]
compound = "COC(=O)C1(C(=O)OC)C/C=C\\CN(S(=O)(=O)c2ccccc2[N+](=O)[O-])CCC1"
observable = "inhibition"
value_measured = -1.4

[[record]]
compound = "CCc1ccc(NC(=O)CS(=O)CC(=O)NCCCc2ccccc2)cc1 (stereo not drawn)"
observable = "inhibition"
value_measured = -1.4


Need inhibition for each of these compounds.
1. O=C1N[C@@H](Cc2ccccc2)C(=O)N2[C@@H]3N(S(=O)(=O)c4ccc(F)cc4)c4ccccc4[C@]3(Br)C[C@@H]12
2. C=C1C(=O)[C@]23C[C@H]1CCC2[C@@]1(C)C(C[C@@H]3O)[C@](C)(C(=O)O)CC[C@@H]1O (stereo partly drawn)
3. Cc1cccc(N2CCN(C(=O)CCS(=O)(=O)c3ccc4c(c3)NC(=O)C(C)S4)CC2)c1C (stereo not drawn)
4. O=C(CCNC(=O)c1ccc([N+](=O)[O-])cc1)Nc1ccccc1N1CCOCC1
5. Cc1cccc(C)c1NC(=O)CNC(=O)c1ccc(N2CCOCC2)c([N+](=O)[O-])c1
6. NS(=O)(=O)c1ccc(CCNC(=O)c2ccc(Cl)c(S(=O)(=O)N3CCCCCC3)c2)cc1
7. COCc1cc(=O)[nH]c(-c2ccc(C(F)(F)F)cc2)n1

stdout:
-0.7
6
-3
3.7
-3
-0.9
13.9
